B1: PDZK1 (parent)
chain: FQAKKIPIVSSLADPLDTPPDSKE

Variants of: B1
Protocol notes: protein stability index of a GFP-peptide fusion (GPS, HEK-293T) (PSI 1-6); higher = more stable;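 also: lentivirally expressed fusions sorted by FACS into six bins by GFP to DsRed ratio, PSI derived from sequencing read proportions per bin multiplied by bin number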
Experimental parameters: c terminus: a fixed tail appended
Measurement kind: protein stability index
// response body must contain only the number

T18C    3.46

Q) What does the data say about its protein stability index? Entry: P20G
A) 4.28

Q) What does the data say about its protein stability index? Entry: L16A
A) 3.85

Q) What does the data say about its protein stability index? Entry: P20T
A) 3.58

Q) What does the data say about its protein stability index? Entry: L16M
A) 3.79

Q) What does the data say about its protein stability index? Entry: K23R
A) 3.23
